Data provenance: patent US4235902A

// reported LD50 for each item listed
assay: Acute oral (peroral) toxicity to mammals; settings: in vivo, rat, mortality rate of 50 percent
assay.readout: LD50

molecule=CN(SC(Cl)(Cl)Cl)C(=O)ON=C1OCC(C)(C)N(C)C1=O result="794 mg/kg"
molecule="CCC1COC(=NOC(=O)NC)C(=O)N1C (stereo not shown)" result="23.8 mg/kg"
molecule=CNC(=O)ON=C1OCC(C)(C)N(C)C1=O result="126 mg/kg"
molecule=CNC(=O)ON=C1OCCN(C)C1=O result="343 mg/kg"

----------
Test system: house flies (Musca domestica, L.)
Assay: Fly bait test
Assay type: in vivo
Set-up: key: A: excellent control; B: partial control; C: no control
Conditions: 500 parts per million in sugar bait; twenty four hours
Protocol: Suspensions of the test compounds were prepared by dissolving one gram of compound in 50 milliliters of acetone in which had been dissolved 0.1 gram (10 percent of the weight of compound) of an alkylphenoxy polyethoxyethanol surfactant, as an emulsifying or dispersing agent. The resulting solution was mixed into 150 milliliters of water to give roughtly 200 milliliters of a suspension containing the compound in finely divided form. […]
assay.readout: Biological Activity: Housefly

compound="CCC1COC(=NOC(=O)N(C)SC(Cl)(Cl)Cl)C(=O)N1C (stereo not shown)" assay_readout="Biological Activity: Housefly" result=A
compound="CCC1COC(=NOC(=O)NC)C(=O)N1C (stereo not shown)" assay_readout="Biological Activity: Housefly" result=A
compound=CN1CCOC(=NOC(=O)N(C)SC(Cl)(Cl)Cl)C1=O assay_readout="Biological Activity: Housefly" result=A
compound="CNC(=O)ON=C1OC(C)CN(C)C1=O (stereo not shown)" assay_readout="Biological Activity: Housefly" result=A
compound=CCCN1CCOC(=NOC(=O)NC)C1=O assay_readout="Biological Activity: Housefly" result=A
compound=CN(SC(Cl)(Cl)Cl)C(=O)ON=C1OCC(C)(C)N(C)C1=O assay_readout="Biological Activity: Housefly" result=A
compound=CNC(=O)ON=C1OCCN(C)C1=O assay_readout="Biological Activity: Housefly" result=A
compound=CNC(=O)ON=C1OCCN(C(C)C)C1=O assay_readout="Biological Activity: Housefly" result=A
compound=CNC(=O)ON=C1OCC(C)(C)N(C)C1=O assay_readout="Biological Activity: Housefly" result=A
compound=CCN1CCOC(=NOC(=O)NC)C1=O assay_readout="Biological Activity: Housefly" result=A
